FYI, the data here is from patent US6673827B1.

# System: Candida albicans (ATCC 10231)
# Test summary: Minimum Inhibitory Concentration (MIC) against yeast, broth dilution
# Assay type: cell-based
# Condition label: 37° C., 20 hours, mean of duplicate
Please respond with reported MIC Candida albicans (ATCC 10231) for every item in the list.
Give just the numeric value; µg/mL need not be written.

In: Which value of MIC Candida albicans (ATCC 10231) has been reported for COC(=O)c1cc2ccccc2n1CCCCCCCCOC(=O)Cc1ccc([N+](C)(C)C)cc1 in the records?
Out: 1.6

In: C[n+]1cccc(C(=O)OCCCCCCCCCn2ccc3ccccc32)c1 ?
Out: 0.8

In: COC(=O)c1cc2cc(OCc3ccccc3)ccc2n1CCCCCCCOC(=O)c1ccc[n+](C)c1 ?
Out: 3.1

In: C[n+]1cccc(C(=O)OCCCCCCCCn2ccc3cc(OCc4ccccc4)ccc32)c1 ?
Out: 4.7

In: C[N+](C)(C)c1ccc(CC(=O)OCCCCCCCCn2ccc3cc(OCc4ccccc4)ccc32)cc1 ?
Out: 1.6

In: COC(=O)c1cc2ccccc2n1CCCCCCCCCOC(=O)Cc1ccc([N+](C)(C)C)cc1 ?
Out: 2.3

In: COC(=O)c1cc2cc(OCc3ccccc3)ccc2n1CCCCCCCCOC(=O)c1ccc[n+](C)c1 ?
Out: 1.6

====

Please respond with reported MFC for every item in the list.
# Test system: Candida albicans LH-000664533
# Test summary: In vitro study of inhibition of growth and lethality against yeast (MIC/MLC susceptibility test), isolate D
# Type: cell-based
# Condition label: LH000664533; Candida albicans, 2nd pair of lines; isolate assigned by line order; read-out: Minimum Lethal Conc. (MLC)
Give just the numeric value; µg/mL need not be written.

In: Test system Candida albicans LH-000664533; read-out MFC; what value for C[N+](C)(C)C(Cc1ccccc1)C(=O)OCCCCCCCCOc1ccc(OCc2ccccc2)cc1.[I-] (centres unmarked) ?
Out: 2

In: C[N+](C)(C)C(CCc1ccccc1)C(=O)OCCCCCCCCOc1ccc(OCc2ccccc2)cc1.[I-] (centres unmarked) ?
Out: 4

In: C[N+](C)(C)c1ccc(CCCC(=O)OCCCCCCCCOc2ccc(OCc3ccccc3)cc2)cc1.[I-] ?
Out: 2

In: COC(=O)c1cc2cc(OCc3ccccc3)ccc2n1CCCCCCCOC(=O)Cc1ccc([N+](C)(C)C)cc1.[I-] ?
Out: 2

In: C[N+](C)(C)c1ccc(CC(=O)OCCCCCCCCOc2ccc(OCc3ccccc3)cc2)cc1.[I-] ?
Out: 8

====

# Tested on: Candida albicans KJP-000531594
# Test summary: In vitro study of inhibition of growth and lethality against yeast (MIC/MLC susceptibility test), isolate C
# Format: cell-based
# Condition label: KJP000531594; Candida albicans, 1st pair of lines; isolate assigned by line order; read-out: Minimum Lethal Conc. (MLC)
Please respond with reported MFC for every item in the list.
Give just the numeric value; µg/mL need not be written.

In: Which value of MFC has been reported for COC(=O)c1cc2cc(OCc3ccccc3)ccc2n1CCCCCCCOC(=O)Cc1ccc([N+](C)(C)C)cc1.[I-] in the records?
Out: 1

In: C[N+](C)(C)C(Cc1ccccc1)C(=O)OCCCCCCCCOc1ccc(OCc2ccccc2)cc1.[I-] (stereo not shown) ?
Out: 2

In: C[N+](C)(C)c1ccc(CCCC(=O)OCCCCCCCCOc2ccc(OCc3ccccc3)cc2)cc1.[I-] ?
Out: 2

In: C[N+](C)(C)C(CCc1ccccc1)C(=O)OCCCCCCCCOc1ccc(OCc2ccccc2)cc1.[I-] (stereo not shown) ?
Out: 2
